Entries and their protein stability index
B1: NECAB1 (parent)
chain: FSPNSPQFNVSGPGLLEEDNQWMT

Variants of: B1
method.description: protein stability index of a GFP-peptide fusion (GPS, HEK-293T) (PSI 1-6); higher = more stable;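 note: lentivirally expressed fusions sorted by FACS into six bins by GFP to DsRed ratio, PSI derived from sequencing read proportions per bin multiplied by bin number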
condition.notes: c terminus: a fixed tail appended

Answered cases to consult:
| mutation.code | meas.value |
| --- | --- |
| P13H | 2.62 |
| Q7T | 3.09 |
| L16N | 2.97 |
| L15M | 3.22 |

// protein stability index value for L15G : 2.91

// protein stability index value for W22G : 3.85
